# Target Under Test: Src kinase (Homo sapiens, UniProt P12931)
# Construct: purchased Upstate Bioteolnology (sic; Upstate Biotechnology); later HMR stock 27597-019E1 #14-117
# Test Name: Phosphorylation assay of Src kinase inhibitors (radiometric, 96 well filter plate)
# Format: biochemical
# Condition Context: IC50, duplicates, tested in the range of 400-0.098 µM; 10 µM peptide substrate (FIYGAFKKKKNH2), 5 µM unlabeled ATP, room temperature 30 min
Measure Name: IC50
Write the quantity with the unit trailing the number.

Exercise: # return recorded IC50 for input NC(=O)CNC(=O)c1cc2ccccc2cc1OCCNC(=O)[C@@H](N)Cc1ccc(O)cc1 [Example 92]
Solution: 3.4 µM

* * *

# Target Under Test: Src kinase (Homo sapiens)
# Construct: purchased Upstate Bioteolnology (sic; Upstate Biotechnology); later HMR stock 27597-019E1 #14-117
# Test Name: Phosphorylation assay of Src kinase inhibitors (radiometric, 96 well filter plate)
# Type: biochemical
# Condition Context: duplicates, tested in the range of 400-0.098 µM; 10 µM peptide substrate (FIYGAFKKKKNH2), 5 µM unlabeled ATP, room temperature 30 min; read-out: IC50
Measure Name: pIC50
To interpret pIC50, take it as minus log10 of a concentration measured in moles per litre.

Exercise: Look up and report measured pIC50 for this entry: N[C@@H](Cc1ccc(O)cc1)C(=O)NCCCCOc1cc2ccccc2cc1C(=O)NCC(=O)NCCCO
Solution: 6.31

Exercise: Identify pIC50 associated with the compound NC(=O)CNC(=O)c1cc2ccccc2cc1OCCCCNC(=O)CNCc1cccc2ccccc12
Solution: 5.22

Exercise: Answer with the recorded pIC50 for the compound listed here: NC(=O)CC[C@H](N)C(=O)NCCCCOc1cc2ccccc2cc1C(=O)NCC(N)=O
Solution: 3.43

Exercise: Respond only with pIC50 recorded for C[C@@H](c1ccc(O)cc1)[C@H](N)C(=O)NCCCCOc1cc2ccccc2cc1C(=O)NCC(N)=O
Solution: 5.22

Exercise: Specify measured pIC50 for CNC(=O)[C@@H](Cc1cccc(C(=O)OC)c1)C(=O)NCCCCOc1cc2ccccc2cc1C(=O)NCC(N)=O .
Solution: 3.69

Exercise: Identify the reported pIC50 for the following entry. NC(=O)CNC(=O)c1cc2ccccc2cc1OCCCCNC(=O)[C@@H](N)Cc1cccs1
Solution: 5.87

Exercise: Give a short answer stating reported pIC50 for NC(=O)CNC(=O)c1cc2cc(Br)ccc2c(Br)c1OCCCCNC(=O)[C@@H](N)Cc1ccc(O)cc1 .
Solution: 4.70

Exercise: For the compound NC(=O)CNC(=O)c1cc2ccccc2cc1OCCCCNC(=O)[C@@H](N)CC1CCCCC1 , give its reported pIC50.
Solution: 6.04

* * *

# Target Under Test: Src kinase (Homo sapiens, UniProt P12931)
# Construct: purchased Upstate Bioteolnology (sic; Upstate Biotechnology); later HMR stock 27597-019E1 #14-117
# Test Name: Phosphorylation assay of Src kinase inhibitors (radiometric, 96 well filter plate)
# Format: biochemical
# Condition Context: duplicates, tested in the range of 400-0.098 µM; 10 µM peptide substrate (FIYGAFKKKKNH2), 5 µM unlabeled ATP, room temperature 30 min; read-out: IC50
Overview of reported IC50 across a group of substances:
Response body: numeric value in µM, unit text excluded.

As a guide, the following entries are already answered.
| Substance | Reported |
| --- | --- |
| 3-[[4-[[1-OXO-2(S)-AMINO-3-(4- HYDROXYPHENYL)]PROPYL]AMINO]BUTOXY]-7-METHOXY- NAPHTHALENE-2-[N-[[(3-HYDROXY- PROPYLAMINO)-CARBONYL]- METHYL]]CARBOXAMIDE [Example 118] | 47 |
| 3-[4-[[2(S)-AMINO-3-(4-HYDROXY- PHENYL)-1-OXOPROPYL]AMINO]- ETHOXY]-2-[N-ACETAMIDO]- NAPHTHALENECARBOXAMIDE [Example 23] | 3.4 |
| 3-[[[2(S)-AMINO-3-(4-HYDROXY- PHENYL)-1-OXO]PROPYL]AMINO]- BUTOXY]NAPHTHALENE-2-[N- [(AMIDO)[2-(INDOL-3-YL)METHYL]- METHYL]CARBOXAMIDE [Example 29] | 60 |

Exercise: Could you please provide reported IC50 for 3-[[[4-[[[1-OXO-2(S)-AMINO-3- HYDROXYPHENYL)]PROPYL]AMINO]- BUTYL]CARBONYL]AMINO]- NAPHTHALENE-2-ACETAMIDO)- CARBOXAMIDE [Example 91] ? Thanks!
Solution: 209
